- experimental.target: Papain (Carica papaya, UniProt P00784)
- Construct: purchased Sigma
- Sequence (P00784 134-345): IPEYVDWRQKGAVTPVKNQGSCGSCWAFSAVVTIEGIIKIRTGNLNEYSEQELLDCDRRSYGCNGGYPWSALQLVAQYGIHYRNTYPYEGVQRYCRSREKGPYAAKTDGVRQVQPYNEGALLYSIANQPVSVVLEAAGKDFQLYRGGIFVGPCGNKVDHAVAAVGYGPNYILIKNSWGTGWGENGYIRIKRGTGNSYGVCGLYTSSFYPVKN
- method.notes: Inhibition of Papain (protocol as for Cathepsine K)
- Assay type: biochemical
- experimental.conditions: read-out: IC50 µM Papain; enzyme 20 ng/ml, 30 min at room temperature
quantity.kind: IC50 (µM)
Quick note: give the figure in µM, leave out the unit.

Prompt: What does the record list as IC50 for COC(=O)CCCC(=O)OCC(=O)[C@H](Cc1ccccc1)NC(=O)[C@@H]1CCCN2C(=O)CC[C@H](NC(=O)Nc3ccc(Oc4ccccc4)cc3)C(=O)N12 [Exemple 217] ?
Completion: 7
